Form field: Response (one value per entry).
molecular target: T1, recombinant human CD3 epsilon/gamma heterodimer (human, UniProt P07766 23-126; P09693 23-116); assay: BLI (Octet), mAb 5 ug/mL on FAB2G sensor, hCD3 E/G 200-50 nM;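 also: antibodies purified from hybridoma supernatants, measured by Octet binding to recombinant human CD3 protein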
T1 construct: Recombinant heterodimer used as analyte in Octet; also called hCD3 E/G
T1 sequence (P07766 23-126, chain 1 of 2): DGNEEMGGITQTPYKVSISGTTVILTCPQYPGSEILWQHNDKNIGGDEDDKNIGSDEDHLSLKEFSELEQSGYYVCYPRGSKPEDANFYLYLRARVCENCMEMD
T1 sequence (P09693 23-116, chain 2 of 2): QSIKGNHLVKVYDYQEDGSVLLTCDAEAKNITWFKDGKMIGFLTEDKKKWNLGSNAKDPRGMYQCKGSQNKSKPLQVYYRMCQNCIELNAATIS
I only need the number, thanks.

INSERT INTO measurements (binder, obs_value) VALUES
  ('ABL-CD3-71 (antibody, V domains shown, mAb purified from hybridoma; chimeric AlivaMab IgG (human VH, CH1 and upper hinge; mouse middle hinge, CH2, CH3; human light chain)) VH: QVQLQESGPGLVKPSETLSLTCTVSGGSINSYYWSWIRQPAGKGLEWIGRIYTSGSTNYNPSLKSRVTMSVDTSKKQFSLKLSSVTAADTAVYYCARERISRLYFDYWGQGILVTVSS VL: NFMLTQPHSVSESPGKTVTISCTRSSGSIASNYVQWYQQRPGSSPTTVIYEDNQRPSGVPDRFSGSIDSSSNSASLTISGLKTEDEADYYCQSYDRSNRVFGGGTKLTVL', 0.11);

GET /value?item= ABL-CD3-78 (antibody, V domains shown, mAb purified from hybridoma; chimeric AlivaMab IgG (human VH, CH1 and upper hinge; mouse middle hinge, CH2, CH3; human light chain)) VH: EVQLVESGGGLVKPGGSLRLSCAASGFTVSNYSMNWVRQAPGKGLEWVSCISRSSSYIYYADSVKGRFTISRDNAKNSLFLQMNSLRAEDTAVYYCARERWELLYFDYWGQGTLVTVSS VL: NFMLTQPHSVSESPGKTVTISCTRSSGSIASNYVQWYQQRPGSSPTTVIYEDNQRPSGVPDRFSGSIDSSSNSASLTISGLKTEDEADYYCQSFDGSNRVFGGGTKLTVL &field=Response returns 0.5

Entry ABL-CD3-76 (antibody, V domains shown, mAb purified from hybridoma; chimeric AlivaMab IgG (human VH, CH1 and upper hinge; mouse middle hinge, CH2, CH3; human light chain)) VH: EVQLVESGGGLVKPGGSLRLSCAASGFTFSNYYMNWVRQAPGKGLERVSSISSSSNYIYYADSVKGRFTISRDNAKNSLYLQMNSLRAEDTAVYYCARDRRELPLDYWGQGTVVTVSS VL: SYELTQPPSVSVSPGQTARITCSGDALPKKYAYWYQQKSGQAPVLVIYEDSKRPSGIPERFSGSSSGTMATLTISGAQVEDEADYYCYSTDSSGNHWVFGGGTKLTVL ; Response = 0.24
